Hello, the source for this data is patent US20200369728A1, in case you need it.

Test system: Caspase 3
assay-info: Caspase 3 detection assay in SJSA1 cells
Type: cell-based
assay-setup: 3 μM, SJSA1, 48 h, Caspase 3 activation over DMSO-treated cells
Bridge positions count the residues as written; N and C are the ends. Square brackets hold non-standard residues; d marks the D form. Peptide text beside a SMILES is read from it. R8 = C=CCCCCCC[C@@](C)(N)C(=O)O; Cba = N[C@@H](CC1CCC1)C(=O)O; S5 = C=CCCC[C@](C)(N)C(=O)O; Nle = CCCC[C@H](N)C(=O)O
metric: caspase 3 μM
Answers are plain numbers.

(Q) Report caspase 3 μM for CCCC[C@H](NC(=O)[C@H](C)NC(=O)[C@H](C)NC(=O)[C@]1(C)CCCC=CCCCCCC[C@@](C)(NC(=O)[C@H](Cc2ccccc2)NC(=O)[C@@H](NC(=O)[C@H](CC(C)C)NC(C)=O)[C@@H](C)O)C(=O)N[C@@H](CCC(=O)O)C(=O)N[C@@H](Cc2ccc(O)cc2)C(=O)N[C@@H](Cc2c[nH]c3ccccc23)C(=O)N[C@@H](C)C(=O)N[C@@H](CCC(N)=O)C(=O)N[C@@H](CC2CCC2)C(=O)N1)C(=O)N[C@@H](C)C(N)=O [compound 238] (Ac-LTF[R8]EYWAQ[Cba][S5]AA[Nle]A-NH2; staple 4-11) tested on Caspase 3.
(A) 2
